tested on: Nanoluciferase (engineered Oplophorus gracilirostris luciferase); test: Primary Nanoluciferase (NLuc) qHTS assay for identification of artifact compounds. (AID 1845222); details: NLuc-conditioned medium, Nano-Glo luminescence, 5 min; series mostly up to 54.1 µM;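 also: NLuc secreted into diluted conditioned medium of S16 cells; 0% = DMSO and -100% = no enzyme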
Activity calls are given as the source filed them. Calls follow the shape of the dose curve; as a rule, active = well fitted inhibition curve with a large enough effect; inconclusive = small, poorly fitted or top-dose-only effect; inactive = flat fitted curve, though single readings scatter.

Molecule	Target or system	activity, negative = inhibition
COC(=O)CC(O)C1OC(c2ccccc2)C(O)C1O (centres undefined)	Nanoluciferase (engineered Oplophorus gracilirostris luciferase)	inactive
COc1cc(C(=O)OC[C@H]2O[C@@H](Oc3ccccc3/C=C/C(=O)O)[C@H](O)[C@@H](O)[C@@H]2O)cc(OC)c1OC	Nanoluciferase (engineered Oplophorus gracilirostris luciferase)	inactive
C=C1C(OC2OCC(O)C(O)C2O)CC2C(C)(C)C(O)CCC2(C)C1CC/C(C)=C\CO (centres undefined)	Nanoluciferase (engineered Oplophorus gracilirostris luciferase)	inactive
CC1=CCC(C(C)(C)O[C@@H]2O[C@H](CO[C@@H]3O[C@@H](C)[C@H](O)[C@@H](O)[C@H]3O)[C@@H](O)[C@H](O)[C@H]2O)CC1 (some centres undefined)	Nanoluciferase (engineered Oplophorus gracilirostris luciferase)	inactive

----------
test system: NIH3T3; assay: Cytotoxic Profiling of Annotated Libraries Using Quantitative High-Throughput Screening (AID 1296008); details: Five cell lines viability, CellTiter-Glo ATP luminescence, 48-72 h; stronger effect = lower value; also: % is scaled to controls: 0 for no effect and ±100 for the full control effect; nearly all actives have a fitted effect of over 60% in size
Results filed as inconclusive are left out.
Result type: max response (%)

Compound	Reading
CC1CCC2(C=O)C(CO)=CCCC2C1(C)CC(=O)O (configuration not stated)	-21.3
CC(=O)O[C@@H]1c2c3c(cc(O)c2C(=O)O[C@@H]1C)O[C@@]1(C)[C@@H](O)C[C@H]2C(C)(C)C(=O)C=C[C@]2(C)[C@@H]1C3	-3.36
CCCC(=O)C1CCN(c2ncnc3c2CN(C(=O)c2ccc(-c4ccccc4)cc2)CC3)CC1	-13.2
C[C@@H]1CC[C@]2(C(=O)O[C@@H]3O[C@H](CO)[C@@H](O)[C@H](O)[C@H]3O)CC[C@]3(C)C(=CCC4[C@@]5(C)C[C@@H](O)[C@H](O)[C@](C)(C(=O)O)C5CC[C@]43C)[C@@H]2[C@]1(C)O (some centres not stated)	0.619
C#CCN(Cc1cc2c(=O)n(C)c(CN3CCN(C)CC3)nc2cc1Cl)c1ccc(C(=O)NCc2cccnc2)cc1	-114
COc1ccc(N2CCOCC2)c2sc(NC(=O)N3CCC(C)(O)CC3)nc12	-12
CC1=C(C)C(=O)OC(C(C)C2CCC3C4CC=C5CC(OC6OC(COC7OC(CO)C(O)C(O)C7O)C(O)C(O)C6O)CC(O)C5(C)C4CCC23C)C1 (configuration not stated)	3.09

----------
assay: Primary fluorescence-based thiol-reactive (MSTI) qHTS assay for identification of artifact compounds. (AID 1845221); settings: MSTI thiol-reactivity probe, 1 h; series mostly up to 53.8 µM;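 also: thiol-reactive compounds lower the probe fluorescence signal; nearly all actives have a fitted effect of over 65% in size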
Results filed as inconclusive are left out. Activity calls are given as the source filed them. The call rests on the fitted dose curve; in most records, active means well fitted inhibition curve with a large enough effect; inconclusive means small, poorly fitted or top-dose-only effect; inactive means no such curve, though single readings can be large or run the other way.
Result type: outcome

Compound	Reading
C/C(=C\CC[C@@H](C)[C@H]1CC(O)[C@@]2(C)C3CC[C@H]4C(C)(C)[C@@H](OC5OCC(O)C(O)C5OC5OC(CO)C(O)C(O)C5O)CC[C@@]45C[C@@]35CC(O)[C@]12C)C(=O)O (some centres undefined)	inactive
O=C1Nc2ccccc2C(O)(c2ccccc2)C1O (centres undefined)	inactive
CC1COC2(OC3CC4C5CC(O[C@@H]6O[C@H](C)[C@@H](O[C@@H]7O[C@@H](C)[C@H](O)[C@@H](O)[C@H]7O)[C@H](O)[C@H]6O)C6CC(O)CCC6(C)C5CCC4(C)C3C2C)C(O)C1 (some centres undefined)	inactive
CC1CCCCN1S(=O)(=O)c1ccc(N2CCCC2=O)cc1 (centres undefined)	inactive

----------
tested on: Hek293T; assay: Primary qHTS to identify gynecologic anti-cancer compounds using libraries of approved drugs and bioactive compounds (AID 1345084); details: Gynecologic cancer cell panel viability, ATPlite luminescence, 48 h, control line for the selectivity index; series mostly up to 57.5 µM; also: nearly all actives have a fitted effect of over 55% in size
Records with an inconclusive call do not appear. Calls of active or inactive are those of the source. Calls follow the shape of the dose curve; as a rule, active = well fitted cell-killing curve with a large enough effect; inconclusive = small, poorly fitted or top-dose-only effect, or effect the other way; inactive = flat fitted curve, though single readings scatter.
Possible outcomes: active, inactive

                                   compound       cat
0  CNC(=O)c1cccc(-c2ccc3c(N4CCOC[C@@H]4C)nc(N4CCOC[C@@H]4C)nc3n2)c1    active
1  CC(C)(C)c1ccc(S(=O)(=O)Nc2ccc(Cl)cc2C(=O)c2cc[n+]([O-])cc2)cc1  inactive
2          O=C1N=C(N2CCOCC2)CN1c1ccc(Cl)cc1  inactive
3  COc1ccc(Cl)c(Nc2nc3ccccc3nc2NS(=O)(=O)c2cccc(NC(=O)C(C)(C)N)c2)c1  inactive
4  CC1=CCC2C(C)(C)CCC[C@]2(C)[C@@]12CC[C@](C)(CC(=O)O)O2 (stereo not given in full)  inactive
5  CS(=O)(=O)NCC1CCC(Nc2nc3c(s2)CCSc2ccccc2-3)CC1 (stereo not given)  inactive
6  CC1(C)CCCC2(C)C(C(=O)O)=CCC12 (stereo not given)  inactive
7  CC(C)c1cc(CNc2nc(Nc3cc(C4CC4)[nH]n3)cc(N3CCN(C)CC3)n2)on1    active
8  C=C1C(=O)OC2CC(C)=C(C(C)CCCO)C(O)C12 (stereo not given)  inactive
9  NC(=O)c1cnc(NCCc2ccc(O)c(Cl)c2)nc1NCc1ccccc1    active

----------
biological target: Cytochrome P450 3A4 (Homo sapiens) (UniProt P08684); assay: Cytochrome P450 family 3 subfamily A member 4 (CYP3A4) small molecule antagonists: luciferase qHTS assay (AID 1645841); details: P450-Glo CYP3A4 enzyme assay, luciferin luminescence; series mostly up to 57.4 µM; also: nearly all actives have a fitted effect of over 45% in size
Sequence (P08684 whole entry, looked up): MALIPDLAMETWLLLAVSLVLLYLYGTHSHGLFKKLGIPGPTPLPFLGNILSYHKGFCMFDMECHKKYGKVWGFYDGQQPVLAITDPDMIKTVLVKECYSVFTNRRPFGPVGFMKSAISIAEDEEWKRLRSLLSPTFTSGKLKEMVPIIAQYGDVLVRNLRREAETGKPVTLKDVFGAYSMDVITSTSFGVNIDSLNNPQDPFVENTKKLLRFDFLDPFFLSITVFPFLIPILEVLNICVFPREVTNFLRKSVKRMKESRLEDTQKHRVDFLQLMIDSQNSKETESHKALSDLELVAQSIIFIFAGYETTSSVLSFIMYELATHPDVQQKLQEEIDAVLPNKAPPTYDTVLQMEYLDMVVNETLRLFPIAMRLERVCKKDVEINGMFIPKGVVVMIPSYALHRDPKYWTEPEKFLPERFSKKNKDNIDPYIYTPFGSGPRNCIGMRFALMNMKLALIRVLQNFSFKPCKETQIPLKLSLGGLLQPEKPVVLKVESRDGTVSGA
Results filed as inconclusive are left out. Activity calls are given as the source filed them. Calls come from the whole dose curve; as a rule, active = well fitted inhibition curve with a large enough effect in the repeat runs; inconclusive = weak or mixed curves; inactive = no such curve, though single readings can be large or run the other way.
Result type: outcome

>>> print(df.to_string())
                                   compound   reading
0  CC1CCCCN1S(=O)(=O)c1ccc(N2CCCC2=O)cc1 (stereo unspecified)  inactive
1  COc1ccc(-n2[nH]c(=O)c3[nH]c4cc(Cl)ccc4c(=O)c3c2=O)c(C)c1  inactive
2  CCCCNc1ccc(-c2ccc(CN3CCOCC3)cn2)c(NC2CCC(O)CC2)c1 (stereo unspecified)  inactive
3  CN1CCN(C2CCC(n3cc(-c4ccc(Oc5ccccc5)cc4)c4c(N)ncnc43)CC2)CC1 (stereo unspecified)  inactive
4  COC(C(=O)N1Cc2[nH]nc(NC(=O)c3ccc(N4CCN(C)CC4)cc3)c2C1)c1ccccc1 (stereo unspecified)  inactive
5           c1cc(OCCCN2CCCCC2)ccc1CN1CCCCC1  inactive

----------
system: HeLa; experiment: Primary qHTS to identify gynecologic anti-cancer compounds using libraries of approved drugs and bioactive compounds (AID 1345084); settings: Gynecologic cancer cell panel viability, ATPlite luminescence, 48 h; series mostly up to 57.5 µM; also: nearly all actives have a fitted effect of over 55% in size; as to activity change, negative = cytotoxicity: % is scaled to controls: 0 for no effect and ±100 for the full control effect
Records with an inconclusive call do not appear. The source made the active and inactive calls. Calls come from the whole dose curve; as a rule, active = well fitted cell-killing curve with a large enough effect; inconclusive = small, poorly fitted or top-dose-only effect, or effect the other way; inactive = flat fitted curve, though single readings scatter.

Compound	activity change, negative = cytotoxicity
CC1(C)CC[C@]2(C(=O)OC3OC(CO)C(O)C(O)C3O)CC[C@]3(C)C(=CCC4[C@@]5(C)CC[C@H](OC6OC(C(=O)O)C(O)C(OC7OC(CO)C(O)C(O)C7O)C6O)C(C)(C)C5CC[C@]43C)C2C1 (stereo partly drawn)	2% [at 11.6 µM] (inactive)
CC(=O)O[C@@H]1[C@H](O[C@@H]2O[C@@H](CO)[C@H](O)[C@H]2O)[C@@H](O[C@@H]2O[C@@H](C)[C@H](O[C@@H]3OC[C@@H](O)[C@H](O)[C@H]3O)[C@@H](O)[C@H]2O)[C@H](OC(=O)[C@]23CCC(C)(C)C[C@H]2C2=CCC4[C@@]5(C)CC[C@H](O[C@@H]6O[C@H](C(=O)O)[C@@H](O)[C@H](O)[C@H]6O[C@@H]6O[C@H](CO)[C@H](O)[C@H](O)[C@H]6O)[C@@](C)(C=O)C5CC[C@@]4(C)[C@]2(C)CC3)O[C@@H]1C (stereo partly drawn)	11.1% [at 6.55 µM] (inactive)
CC1(C)CC[C@]2(C(=O)O[C@@H]3O[C@H](CO[C@@H]4O[C@H](CO)[C@@H](O)[C@H](O)[C@H]4O[C@@H]4O[C@H](CO)[C@H](O)[C@H](O)[C@H]4O)[C@@H](O)[C@H](O[C@@H]4O[C@H](CO)[C@@H](O)[C@H](O)[C@H]4O)[C@H]3O)CC[C@]3(C)C(=CCC4[C@@]5(C)CC[C@H](O[C@@H]6OC[C@@H](O)[C@H](O)[C@H]6O)[C@@](C)(C(=O)O)C5CC[C@]43C)[C@@H]2C1 (stereo partly drawn)	0.826% [at 6.55 µM] (inactive)

----------
system: JEG-3; assay: Primary qHTS to identify gynecologic anti-cancer compounds using libraries of approved drugs and bioactive compounds (AID 1345084); conditions: Gynecologic cancer cell panel viability, ATPlite luminescence, 48 h; series mostly up to 57.5 µM; also: nearly all actives have a fitted effect of over 55% in size; as to activity change, negative = cytotoxicity: % is scaled to controls: 0 for no effect and ±100 for the full control effect
Inconclusive results are not listed. Activity calls are given as the source filed them. Calls come from the whole dose curve; as a rule, active = well fitted cell-killing curve with a large enough effect; inconclusive = small, poorly fitted or top-dose-only effect, or effect the other way; inactive = flat fitted curve, though single readings scatter.
Result type: activity change, negative = cytotoxicity

Compound	Target or system	Result type	Reading
C[C@@H]1O[C@@H](O[C@H]2[C@H](O[C@H]3CC[C@@]4(C)C(CC[C@]5(C)C4C=C[C@]46OC[C@@]7(CCC(C)(C)C[C@H]74)[C@@H](O)C[C@]65C)[C@]3(C)CO)O[C@H](CO)[C@@H](O)[C@@H]2O[C@@H]2O[C@H](CO)[C@@H](O[C@@H]3O[C@@H](C)[C@H](O)[C@@H](O)[C@H]3O)[C@H](O)[C@H]2O)[C@H](O)[C@H](O)[C@H]1O (stereo not given in full)	JEG-3	activity change, negative = cytotoxicity	-0.552% [at 11.6 µM] (inactive)
CC(C)(C)NS(=O)(=O)c1cncc(-c2cc(F)c3nc(N)nn3c2)c1	JEG-3	activity change, negative = cytotoxicity	inactive
CCc1cccc(CC)c1NC(=O)c1nn(C)c2c1CCc1cnc(Nc3ccc(C(=O)NC4CCN(C)CC4)cc3OC(F)(F)F)nc1-2	JEG-3	activity change, negative = cytotoxicity	inactive
CC(=O)OC1CC2(C)C3=CCC4(C)C5C(O)C(O)C(C(C)C)C5(C)CCC4(C)C3CCC2C(C)(C)C1OC1OC(CO)C(O)C(O)C1O (stereo not given)	JEG-3	activity change, negative = cytotoxicity	inactive
COC1CC(O[C@H]2CC[C@@]3(C)C(=CC[C@]4(O)C3[C@H](OC(C)=O)[C@@H](OC(=O)c3ccccc3)[C@]3(C)[C@@H](C(C)=O)CC[C@@]34O)C2)OC(C)C1OC1CC(OC)C(OC2CC(OC)C(OC3OC(C)C(OC4OC(CO)C(O)C(O)C4O)C(OC)C3O)C(C)O2)C(C)O1 (stereo not given in full)	JEG-3	activity change, negative = cytotoxicity	-8.02% [at 6.55 µM] (inactive)
